Organism: Rattus norvegicus
Test Protocol: Open TG-GATES - Regimen: Daily Repeat
Assay type: toxicity, organism-based, Sprague-Dawley
Parameters: regimen Daily Repeat, gender Male, age 6 weeks
Measurement Context: in vivo, po, 0 mg/kg, […], tissue Blood, route gavage, dose level Control, time 14 day
Measure Name: MCH (pg)
Numbers only; they are read as pg.

Oc1ncnc2[nH]ncc12 :: 19.9
O=C(N[C@H](CO)[C@H](O)c1ccc([N+](=O)[O-])cc1)C(Cl)Cl :: 20.3
Nc1nc(N)c2nc(-c3ccccc3)c(N)nc2n1 :: 19.5
CC(C)(S)[C@@H](N)C(=O)O :: 20.4

Moving on to the next compound.
IN: # query: MCH of entry C[C@](N)(Cc1ccc(O)c(O)c1)C(=O)O
OUT: 21.2

====

Species on record: Rattus norvegicus
Test Protocol: Open TG-GATES - Regimen: Daily Repeat
Type: toxicity, organism-based, Sprague-Dawley
Set-up: regimen Daily Repeat, gender Male, age 6 weeks
Measurement Context: in vivo, po, 0 mg/kg, […], route gavage, dose level Control, time 28 day
Measure Name: TERMINAL_BW (g)
Give your result in g as a bare value.

// known answers, use as guide
C[C@]12CCC(=O)C=C1CC[C@@H]1[C@@H]2CC[C@@]2(C)[C@H]1CC[C@]2(C)O :: 397.8
O=C(O)c1cccnc1 :: 405.7
CCc1oc2ccccc2c1C(=O)c1cc(I)c(O)c(I)c1 :: 397
CC(C)(S)[C@@H](N)C(=O)O :: 405.5

IN: Any idea what its TERMINAL_BW is? The compound is CCSCC[C@H](N)C(=O)O
OUT: 407.1

IN: Lookup CC(=O)Oc1cc(C(C)C)c(OCCN(C)C)cc1C
OUT: 397.2

IN: Try this compound next: Oc1ncnc2[nH]ncc12
OUT: 401.4

====

Species: Rattus norvegicus
Test Protocol: Open TG-GATES - Regimen: Daily Repeat
Assay type: toxicity, organism-based, Sprague-Dawley
Design: regimen Daily Repeat, gender Male, age 6 weeks
Measurement Context: in vivo, po, 0 mg/kg, 72 h, tissue Blood, route gavage, dose level Control, time 3 day
Measure Name: MCHC (%)
Express the result in % but write the number alone.

As a guide, the following entries are already answered.
CN1C(=O)OC(C)(C)C1=O :: 33.4
CCSCC[C@H](N)C(=O)O :: 34
CC(=N)S [THIOACETAMIDE] :: 32.5
O=C(O)c1cccnc1 :: 33.5

In the following, a different compound is considered.
IN: Please give the measured MCHC for this compound: C#C[C@]1(O)CC[C@H]2[C@@H]3CCc4cc(O)ccc4[C@H]3CC[C@@]21C
OUT: 33.5

====

Species: Rattus norvegicus
Test Protocol: Open TG-GATES - Regimen: Single
Assay type: toxicity, organism-based, Sprague-Dawley
Parameters: regimen Single, gender Male, age 6 weeks
Measurement Context: in vivo, po, 0 mg/kg, 24 h, tissue Blood, route gavage, dose level Control
Measure Name: Lym (%)
Report the figure in % without appending any unit label.

Oc1ncnc2[nH]ncc12 [ALLOPURINOL] :: 72
C[C@](N)(Cc1ccc(O)c(O)c1)C(=O)O [METHYLDOPA] :: 75.8

We next turn to a different compound, shown below.
IN: Value lookup for Lym; key = CCSCC[C@H](N)C(=O)O [ETHIONINE]
OUT: 80.6
